System: IL-1β secretion from human whole blood
Experiment: Inhibition of IL-1β secretion from whole blood
Assay type: cell-based
Conditions: human whole blood diluted 1:2, LPS 5 ng/ml, 18 hours, ELISA
Method: Human blood is freshly drawn from healthy donors and diluted 1:2 in PBS. To 500 μl of diluted blood […] of prediluted test compound in RPMI medium and […] LPS (5 ng/ml final concentration on the plate) are added (LPS, Serotype 0111:B4, Sigma L3012). After stimulation for 18 hours supernatants are collected and assayed for IL-1β levels using the appropriate ELISA kit (R&D systems).
pIC50: −log10 of the molar value.
Record form. Attribute: pIC50. Fill in for each entry.

INSERT INTO assay_data (compound, measured_parameter, measured) VALUES
  ('CCCNc1cccn([C@@H](CC)C(=O)N[C@@H](CC(=O)O)C(=O)COc2c(F)c(F)cc(F)c2F)c1=O [Compound 39]', 'pIC50', '5.30 to 6.30');

Hi, could you look up pIC50 for each item in my list?
1. CC[C@@H](C(=O)N[C@@H](CC(=O)O)C(=O)COc1c(F)c(F)cc(F)c1F)n1cccc(NC(C)=O)c1=O [Compound 1]
2. CC(C)[C@@H](C(=O)N[C@@H](CC(=O)O)C(=O)COc1c(F)c(F)cc(F)c1F)n1cccc(NC(=O)Cc2ccccc2)c1=O [Compound 23]

Result:
["> 6.30", "5.30 to 6.30"]

Hi, could you look up pIC50 for each item in my list?
1. CC[C@@H](C(=O)N[C@@H](CC(=O)O)C(=O)COc1c(F)c(F)cc(F)c1F)n1cccc(NC(=O)c2ccoc2)c1=O [Compound 8]
2. CC[C@@H](C(=O)N[C@@H](CC(=O)O)C(=O)COc1c(F)c(F)cc(F)c1F)n1cccc(NS(=O)(=O)C(C)C)c1=O [Compound 20]
3. CC[C@@H](C(=O)N[C@@H](CC(=O)O)C(=O)COc1c(F)c(F)cc(F)c1F)n1cc(C(F)(F)F)cc(NC(C)=O)c1=O [Compound 13]
4. CCCS(=O)(=O)Nc1cccn([C@@H](CC)C(=O)N[C@@H](CC(=O)O)C(=O)COc2c(F)c(F)cc(F)c2F)c1=O [Compound 19]
5. CC[C@@H](C(=O)N[C@@H](CC(=O)O)C(=O)COc1c(F)c(F)cc(F)c1F)n1cccc(NC(=O)c2cccnc2)c1=O [Compound 9]
6. CC[C@@H](C(=O)N[C@@H](CC(=O)O)C(=O)COc1c(F)c(F)cc(F)c1F)n1cccc(Nc2nccs2)c1=O [Compound 38]
7. CC[C@@H](C(=O)N[C@@H](CC(=O)O)C(=O)COc1c(F)c(F)cc(F)c1F)n1cccc(NC(=O)c2ccco2)c1=O [Compound 7]

Result:
1: 5.30 to 6.30; 2: 5.30 to 6.30; 3: 5.30 to 6.30; 4: 5.30 to 6.30; 5: 5.30 to 6.30; 6: 5.30 to 6.30; 7: > 6.30

Hi, could you look up pIC50 for each item in my list?
1. CC[C@@H](C(=O)N[C@@H](CC(=O)O)C(=O)COc1c(F)c(F)cc(F)c1F)n1cccc(NC(=O)c2ccccc2)c1=O [Compound 11]
2. CC[C@@H](C(=O)N[C@@H](CC(=O)O)C(=O)COc1c(F)c(F)cc(F)c1F)n1cccc(NS(=O)(=O)CC)c1=O [Compound 18]
3. CCC(=O)Nc1cccn([C@@H](CC)C(=O)N[C@@H](CC(=O)O)C(=O)COc2c(F)c(F)cc(F)c2F)c1=O [Compound 2]

Result:
> 6.30
5.30 to 6.30
> 6.30
